pIC50 values for the compounds below.
Tested Target: Recombinant human c-KIT kinase (Homo sapiens (Human), UniProt P10721)
Sequence (P10721 26-976): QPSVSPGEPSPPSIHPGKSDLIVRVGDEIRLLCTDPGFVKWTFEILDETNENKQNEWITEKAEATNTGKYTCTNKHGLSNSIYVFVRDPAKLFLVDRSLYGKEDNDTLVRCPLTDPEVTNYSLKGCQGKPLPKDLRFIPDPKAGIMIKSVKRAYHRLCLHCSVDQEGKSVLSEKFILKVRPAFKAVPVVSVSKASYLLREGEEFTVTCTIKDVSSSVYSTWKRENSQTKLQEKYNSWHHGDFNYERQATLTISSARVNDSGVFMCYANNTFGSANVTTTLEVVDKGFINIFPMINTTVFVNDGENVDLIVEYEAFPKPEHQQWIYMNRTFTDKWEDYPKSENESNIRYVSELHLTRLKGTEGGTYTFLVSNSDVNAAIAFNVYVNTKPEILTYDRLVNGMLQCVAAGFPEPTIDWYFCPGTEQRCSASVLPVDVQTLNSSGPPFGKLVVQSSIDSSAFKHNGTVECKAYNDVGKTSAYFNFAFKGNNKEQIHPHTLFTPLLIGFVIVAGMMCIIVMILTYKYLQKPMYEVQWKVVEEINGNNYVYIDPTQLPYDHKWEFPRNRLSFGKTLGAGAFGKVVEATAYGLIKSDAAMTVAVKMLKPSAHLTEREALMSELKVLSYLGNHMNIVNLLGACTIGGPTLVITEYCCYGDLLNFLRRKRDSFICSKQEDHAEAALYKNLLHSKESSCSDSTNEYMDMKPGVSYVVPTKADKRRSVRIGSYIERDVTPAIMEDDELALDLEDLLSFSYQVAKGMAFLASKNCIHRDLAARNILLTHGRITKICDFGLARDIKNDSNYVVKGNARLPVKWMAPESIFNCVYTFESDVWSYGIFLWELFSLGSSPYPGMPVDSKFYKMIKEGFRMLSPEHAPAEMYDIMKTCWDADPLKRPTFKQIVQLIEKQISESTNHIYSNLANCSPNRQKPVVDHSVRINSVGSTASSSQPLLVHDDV
Procedure Details: c-KIT kinase chemiluminescence assay (ADP-Glo)
Experimental Conditions: ATP 50 μM
pIC50: −log10 of the molar value.

The examples below pair each entry with its known result.
Answer with the recorded pIC50 for the compound listed here: Cc1ccc(-c2noc([C@H]3C[C@@H]3F)n2)cc1NC(=O)c1cnc(-c2ccc3nnn(C)c3c2)o1 [Example 308-46]
6.00 to 7.00

Answer with the recorded pIC50 for the compound listed here: Cc1ccc(-c2noc([C@H]3C[C@@H]3F)n2)cc1NC(=O)c1cnc(-c2ccc3cnn(C)c3c2)o1 [Example 308-32]
> 7.00

Answer with the recorded pIC50 for the compound listed here: Cc1ccc(-c2noc([C@H]3C[C@@H]3F)n2)cc1NC(=O)c1cnn2ccc(N3CC4(C3)CN(S(C)(=O)=O)C4)cc12 [Example 241-1]
> 7.00

More entries:
Answer with the recorded pIC50 for the compound listed here: Cc1ncc(-c2noc([C@H]3C[C@@H](OC(F)(F)F)C3)n2)cc1NC(=O)c1cnn2cc(-c3cn(CC4(C)COC4)nn3)ccc12 [Example 132-12]
> 7.00

Answer with the recorded pIC50 for the compound listed here: Cc1ncc(-c2noc(C3(F)CN(C(=O)C(C)(F)F)C3)n2)cc1NC(=O)c1cnn2ccc(N3CC4(C3)CC(O)(C(F)F)C4)cc12 [Example 281-103]
6.00 to 7.00

Answer with the recorded pIC50 for the compound listed here: Cc1ccc(-c2noc([C@H]3C[C@@H](OC(F)(F)F)C3)n2)cc1NC(=O)c1cnn2ccc(N3CC4(CN(C(=O)OC(C)(C)C)C4)C3)cc12 [Example 258]
6.00 to 7.00
